From: patent US10556936B2

Test system: T cell lines obtained from HDM allergic individuals and non-allergics
ASSAY REMARKS: In vitro T cell proliferation test in T cell lines (Example 3)
Format: cell-based, human
COND: T cell lines from HDM allergic individuals (n=30); 0.5 or 2 ug/ml; 72 h
I'd appreciate it if you could supply % responders of in-vitro T cell proliferation test, Allergic values for the items below.
API: value field is a number in %; no unit string.

What does the data say about its % responders of in-vitro T cell proliferation test, Allergic? Entry: A017: house dust mite protein; SEQ ID NO: 21 (Der f), 25 (Der p), 313 (Blo t) (protein) MSSSSGKKYDFSGKVALVTGSSSGIGAAIALQFAQYGAQVTITGRDAAALESVAKRIEAESGHQPLQIVGNLLDQSLPAKLIDGTISKYGRLDFLVNNAGFSTQHRDIHDEKLMEAFDQVYGLNVRAVVQLSQLAATHLEKSKGNIINISSNLSMMPVHIIYSSSKAALDMITKTMAMEFGKKGVRVNSINPGPVATQFMRSLGMPVTFLKENEEFVKELTLLKFVAQPVEIANLASFLASDDARNMTGSIVVNDTGSLLAPRVDFKKLDEIKKK
7

What does the data say about its % responders of in-vitro T cell proliferation test, Allergic? Entry: Derp2: major house dust mite allergen, group 2, Dermatophagoides pteronyssinus; control (protein, UniProt P49278 18-146, looked up) Mite group 2 allergen Der p 2: DQVDVKDCANHEIKKVLVPGCHGSEPCIIHRGKPFQLEAVFEANQNTKTAKIEIKASIDGLEVDVPGIDPNACHYMKCPLVKGQQYDIKYTWNVPKIAPKSENVVVTVKVMGDDGVLACAIATHAKIRD
57
